B1: KIAA1614 peptide 568-583 (uncharacterized protein KIAA1614), 16-mer library wild type / USP8 rhodanese domain (ubiquitin carboxyl-terminal hydrolase 8, residues 174-317) (parent)
chain 1: GMERVLGGLSSPLRLL
chain 2: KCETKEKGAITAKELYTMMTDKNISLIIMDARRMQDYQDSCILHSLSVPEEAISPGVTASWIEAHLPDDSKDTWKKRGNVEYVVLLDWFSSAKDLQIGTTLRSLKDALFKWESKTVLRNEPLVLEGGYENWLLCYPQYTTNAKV

Variants of: B1
Assay: peptide-phage display deep mutational scan (M13, 16-mer library, displayed with a C-terminal GGGSG linker encoded by the 3' flank) selected against the GST-tagged USP8 rhodanese domain, four rounds; NGS counts summed over selection …
Settings: with USP8 rhodanese domain (ubiquitin carboxyl-terminal hydrolase 8, residues 174-317), 10 µg GST-bait on MaxiSorp, pre-cleared on GST, 2 h at 4 °C, five washes with 0.05% Tween 20 in PBS, not graded, scale: average over two replicas of the peptide's fractional NGS count
measure-name: screen value
Answer using only a numeral; do not append any unit.

The reported screen value of the variant chain 1 V5D was 0.0242

Others:
The reported screen value of the variant chain 1 M2N was 0.00694
